Test system: Jurkat
PROTOCOL_DESCRIPTION: Inhibition of TNF-alpha-induced necroptosis in FADD-deficient human Jurkat T cells
Assay type: functional, cell-based
ASSAY_METRIC: EC50 (nM)
The reply should contain only the number, in nM.

Examples with answers:
{"columns": ["SMILES_ENTRY", "EC50 / nM"],
 "data": [
  ["Cn1cccc1C(=O)NCc1c(F)cccc1Cl", 900],
  ["Cn1c(Cl)ccc1C(=O)NCc1c(F)cccc1Cl", 740]
]}

The record that follows has no EC50 shown yet.
Ask: // query EC50 value for entry "CC(C)n1c(C#N)ccc1C(=O)NCc1c(F)cccc1Cl"
Reply: 1400
